target: phospho p-38 alpha kinase (Homo sapiens); construct: purchased Panvera; assay: P-38 alpha kinase assay (spectrophotometric, pyruvate kinase/lactate dehydrogenase coupled); format: biochemical; settings: read-out: % Inhibition @ concentration, Table 3; at 1 uM
Sequence (Q16539 whole entry): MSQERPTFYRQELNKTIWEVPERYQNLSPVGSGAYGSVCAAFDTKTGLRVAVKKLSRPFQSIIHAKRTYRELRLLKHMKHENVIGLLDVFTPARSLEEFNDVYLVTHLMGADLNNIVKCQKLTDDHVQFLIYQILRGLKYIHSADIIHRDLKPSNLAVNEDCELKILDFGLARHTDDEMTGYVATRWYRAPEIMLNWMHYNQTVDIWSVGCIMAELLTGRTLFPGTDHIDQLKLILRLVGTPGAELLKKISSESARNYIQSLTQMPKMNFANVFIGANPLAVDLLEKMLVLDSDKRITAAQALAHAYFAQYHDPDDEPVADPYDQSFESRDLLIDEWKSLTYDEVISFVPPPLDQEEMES
The reader will find reported inhibition at 1 µM values listed item by item below.
Express it in %; write the number only.

Qu. Need inhibition at 1 µM of CC(C)(C)c1cc(NC(=O)Nc2ccc3c(c2)OCO3)n(-c2cccc(CCN)c2)n1 , thanks.
Ans. 48

Qu. Need inhibition at 1 µM of COc1cccc(-n2nc(C(C)(C)C)cc2NC(=O)Nc2ccc(N(C)C)cc2)c1 , thanks.
Ans. 9

Qu. Entry CC(C)(C)c1cc(NC(=O)Nc2ccc(Cl)cc2)n(-c2cccc(CN)c2)n1 : reported inhibition at 1 µM = ?
Ans. 63

Recorded values, source patent US20070191336A1.
